src = paper PMC12040169

Measurement notes: in vitro
Experimental setup: human, hela cells, % viability
Endpoint: viability at 28.5 h, 10 µM (%)
Provide the reading as a plain figure in %.

Consider the compound Cc1noc(C)c1NC(=O)N(Cc1ccc2ccccc2c1)CC1CCNCC1 and give its measured viability at 28.5 h, 10 µM. 110

Consider the compound COc1ccc(CN2CCCC(c3nccnc3-c3cccc(NC(C)=O)c3)C2)cc1 (centres unmarked) and give its measured viability at 28.5 h, 10 µM. 104

Consider the compound O=[N+]([O-])c1ccc(N2CCN(CCO)CC2)cc1NCc1ccc(Cl)cc1 and give its measured viability at 28.5 h, 10 µM. 99.6

Consider the compound O=C(CSc1nccn(-c2ccc(F)cc2)c1=O)Nc1ccc(F)cc1 and give its measured viability at 28.5 h, 10 µM. 91.2

Consider the compound NS(=O)(=O)c1ccc(/N=C/c2cccc(O)c2O)cc1 and give its measured viability at 28.5 h, 10 µM. 87.8

Consider the compound O=C(Nc1ccc(N2CCN(Cc3ccccc3)CC2)cc1)c1nc[nH]n1 and give its measured viability at 28.5 h, 10 µM. 105

Consider the compound COc1ccc(-c2oc3ccccc3c(=O)c2OCC(=O)O)cc1 and give its measured viability at 28.5 h, 10 µM. 98.7

Consider the compound Nc1nnc(SCc2nc(=O)c3ccccc3[nH]2)s1 and give its measured viability at 28.5 h, 10 µM. 92.2

Consider the compound Cc1cc(CNS(=O)(=O)c2sc3ccc(C(C)C)cc3c2C)no1 and give its measured viability at 28.5 h, 10 µM. 109

Consider the compound Cc1ccc(OCC(=O)Nc2ccccc2N2CCN(S(C)(=O)=O)CC2)cc1 and give its measured viability at 28.5 h, 10 µM. 84

Consider the compound CCS(=O)(=O)N1C2CCC(C2)[C@H]1COc1ccc(F)cc1 (some centres unmarked) and give its measured viability at 28.5 h, 10 µM. 109

Consider the compound CC(C)(C)OC(=O)NC1CCN(C(=O)Nc2ccc(OCc3ccccc3)cc2)CC1 and give its measured viability at 28.5 h, 10 µM. 98.4

Consider the compound CCOC(=O)C1CCCN1Cc1ccccc1 (centres unmarked) [CBK278278G] and give its measured viability at 28.5 h, 10 µM. 95

Consider the compound CCOC(=O)C(CO)NC(=O)c1cncc(Br)c1 (centres unmarked) and give its measured viability at 28.5 h, 10 µM. 83.8

====

Measurement notes: in vitro
Experimental setup: human, hela cells, % viability
Endpoint: viability at 28.5 h, 10 µM (%)
Provide the reading as a plain figure in %.

Consider the molecule Cc1c(S(=O)(=O)NCCN(C)C)sc2ccc(C(C)C)cc12 [CBK170357] and give its measured viability at 28.5 h, 10 µM. 90.2

Consider the molecule CCn1c(SCC(=O)Nc2cc(Cl)ccc2O)nnc1-c1ccccc1 [CBK269680] and give its measured viability at 28.5 h, 10 µM. 87.4

Consider the molecule O=C(CC1CCCCC1)N1CCCC1c1n[nH]cc1-c1ccncc1 (centres unmarked) [CBK283429] and give its measured viability at 28.5 h, 10 µM. 90.4

Consider the molecule CCOC(=O)N(C)c1c(CC)nc2ccc(C(=O)Nc3cc(-c4ccccc4)ccc3OC)cn12 [CBK145478] and give its measured viability at 28.5 h, 10 µM. 89.6

Consider the molecule O=S(=O)(Nc1cc(O[C@@H]2CCNC2)c2occc2c1)c1ccccc1Br [CBK200020C] and give its measured viability at 28.5 h, 10 µM. 89.6
